Listed compounds paired with reported pKi
- target under test: human GlyT1c transporter (Homo sapiens)
- Construct: membranes)
- Sequence (P48067 1-706): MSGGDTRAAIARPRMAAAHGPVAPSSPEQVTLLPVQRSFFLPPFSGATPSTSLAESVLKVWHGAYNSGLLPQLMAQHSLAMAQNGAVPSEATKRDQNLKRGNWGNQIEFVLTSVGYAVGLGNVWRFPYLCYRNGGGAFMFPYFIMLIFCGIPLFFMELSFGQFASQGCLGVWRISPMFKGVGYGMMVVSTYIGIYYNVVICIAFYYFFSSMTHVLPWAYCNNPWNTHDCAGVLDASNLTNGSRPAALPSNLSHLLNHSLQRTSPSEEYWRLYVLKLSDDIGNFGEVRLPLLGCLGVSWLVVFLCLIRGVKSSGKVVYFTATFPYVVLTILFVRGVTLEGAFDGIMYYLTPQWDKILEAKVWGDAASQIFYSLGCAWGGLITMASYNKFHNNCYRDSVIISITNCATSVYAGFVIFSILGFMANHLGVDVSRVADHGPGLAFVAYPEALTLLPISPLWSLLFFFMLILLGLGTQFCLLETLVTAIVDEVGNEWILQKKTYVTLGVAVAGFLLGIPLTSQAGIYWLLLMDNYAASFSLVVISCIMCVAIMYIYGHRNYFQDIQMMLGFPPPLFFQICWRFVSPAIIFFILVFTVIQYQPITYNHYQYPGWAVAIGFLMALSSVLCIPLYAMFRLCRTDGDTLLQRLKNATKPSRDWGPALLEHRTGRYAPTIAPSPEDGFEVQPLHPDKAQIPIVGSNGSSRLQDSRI
- protocol: Radioligand binding assay using recombinant CHO cell membranes expressing human GlyT1
- settings: read-out: radioligand binding Kiapp
pKi: −log10 of the molar value.

compound="CN1Cc2ccc(OCCNS(=O)(=O)c3cnn(C)c3)cc2C1Cc1ccccc1 (stereo not shown)" target_under_test="human GlyT1c transporter (Homo sapiens)" result="> 8.00"
compound="Cn1cc(S(=O)(=O)NCCOc2ccc3c(c2)C(Cc2ccccc2)N(C(=O)C(F)(F)F)C3)cn1 (stereo not shown)" target_under_test="human GlyT1c transporter (Homo sapiens)" result="> 6.00"
compound="Cn1cnc(S(=O)(=O)NCCOc2ccc3c(c2)C(C)(Cc2ccccc2)NC3)c1 (stereo not shown)" target_under_test="human GlyT1c transporter (Homo sapiens)" result="> 7.00"

Now examine the next entry.
Give its pKi value. Item: Cn1cc(S(=O)(=O)NCCOc2ccc3c(c2)C(Cc2ccccc2)NC3=O)cn1 (stereo not shown) > 5.00

====

- target under test: human GlyT1c transporter (Homo sapiens)
- Construct: membranes)
- protocol: Radioligand binding assay using recombinant CHO cell membranes expressing human GlyT1
- settings: read-out: radioligand binding Kiapp
pKi: −log10 of the molar value.
Listed compounds paired with reported pKi

Answered cases to consult:
compound="O=S(=O)(CC1CC1)NCCOc1cc2c(cc1F)CNC2Cc1ccccc1 (stereo not drawn)" readout_type=pKi result="> 6.00"
compound="CC1(Cc2ccccc2)NC(=O)c2ccc(OCCNS(=O)(=O)CC3CC3)cc21 (stereo not drawn)" readout_type=pKi result="> 5.00"

Give its pKi value. Item: CN1Cc2ccc(OCCNS(=O)(=O)c3cn(C)cn3)cc2C1Cc1ccccc1 (stereo not drawn) > 7.00

Give its pKi value. Item: Cn1cc(S(=O)(=O)NCCOc2ccc3c(c2)C(Cc2ccccc2)N(CC(F)(F)F)C3)cn1 (stereo not drawn) > 6.00

Give its pKi value. Item: CC(C)(C)OC(=O)NCCOc1ccc2c(c1)C(Cc1ccccc1)NC2=O (stereo not drawn) < 5.00

Give its pKi value. Item: Cn1cnc(S(=O)(=O)NCc2ccc3c(c2)C(Cc2ccccc2)NC3)c1 (stereo not drawn) > 6.00

Give its pKi value. Item: O=C1NC(Cc2ccccc2)c2cc(OCCNS(=O)(=O)CC3CC3)c(F)cc21 (stereo not drawn) > 5.00

====

- target under test: human GlyT1c transporter (Homo sapiens, UniProt P48067)
- Construct: membranes)
- Sequence (P48067 1-706): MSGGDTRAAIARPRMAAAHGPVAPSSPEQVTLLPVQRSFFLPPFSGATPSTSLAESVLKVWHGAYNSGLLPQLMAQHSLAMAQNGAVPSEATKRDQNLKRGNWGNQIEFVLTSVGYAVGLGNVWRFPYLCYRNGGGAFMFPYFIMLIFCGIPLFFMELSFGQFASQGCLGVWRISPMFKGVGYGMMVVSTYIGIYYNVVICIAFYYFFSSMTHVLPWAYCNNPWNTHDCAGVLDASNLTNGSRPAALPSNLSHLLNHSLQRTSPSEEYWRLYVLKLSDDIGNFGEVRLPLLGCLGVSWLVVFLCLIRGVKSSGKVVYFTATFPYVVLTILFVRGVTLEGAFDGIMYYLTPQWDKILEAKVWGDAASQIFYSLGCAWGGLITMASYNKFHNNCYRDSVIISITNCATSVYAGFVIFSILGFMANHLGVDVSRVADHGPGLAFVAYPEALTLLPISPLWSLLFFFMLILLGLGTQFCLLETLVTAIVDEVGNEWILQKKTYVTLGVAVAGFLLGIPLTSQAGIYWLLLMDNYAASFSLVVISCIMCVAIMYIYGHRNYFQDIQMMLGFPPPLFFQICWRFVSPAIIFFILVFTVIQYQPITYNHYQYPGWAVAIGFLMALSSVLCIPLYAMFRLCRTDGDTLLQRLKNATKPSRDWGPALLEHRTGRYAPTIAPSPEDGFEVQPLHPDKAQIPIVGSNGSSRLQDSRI
- protocol: Radioligand binding assay using recombinant CHO cell membranes expressing human GlyT1
- settings: read-out: radioligand binding Kiapp
Listed compounds paired with reported Ki

Answered cases to consult:
compound="Cn1cnc(S(=O)(=O)NCCOc2ccc3c(c2)C(C)(Cc2ccccc2)NC3=O)c1 (centres unmarked) [Example 8]" target_under_test="human GlyT1c transporter (Homo sapiens, UniProt P48067)" readout_type=Ki result="< 10000 nM"
compound="Cn1cnc(S(=O)(=O)NCCOc2ccc3c(c2)C(Cc2ccccc2)NC3)c1 (centres unmarked) [Example 5]" target_under_test="human GlyT1c transporter (Homo sapiens, UniProt P48067)" readout_type=Ki result="< 100 nM"
compound="Cn1cnc(S(=O)(=O)NCc2ccc3c(c2)C(Cc2ccccc2)NC3=O)c1 (centres unmarked) [Example 2]" target_under_test="human GlyT1c transporter (Homo sapiens, UniProt P48067)" readout_type=Ki result="< 1000 nM"

Give its Ki value. Item: CCS(=O)(=O)NCCOc1cc2c(cc1F)CNC2Cc1ccccc1 (centres unmarked) [Example 25] < 10000 nM

Give its Ki value. Item: Cn1cc(S(=O)(=O)NCCOc2ccc3c(c2)C(C)(Cc2ccccc2)NC3)cn1 (centres unmarked) [Example 10] < 100 nM

Give its Ki value. Item: O=C1NC(Cc2ccccc2)c2cc(CNS(=O)(=O)CC3CC3)ccc21 (centres unmarked) [Example 26] < 10000 nM

Give its Ki value. Item: Cn1cc(S(=O)(=O)NCCOc2ccc3c(c2)C(C)(Cc2ccccc2)NC3=O)cn1 (centres unmarked) [Example 9] < 10000 nM

Give its Ki value. Item: Cn1cnc(S(=O)(=O)NCCOc2cc3c(cc2F)C(=O)NC3Cc2ccccc2)c1 (centres unmarked) [Example 19] < 1000 nM

Give its Ki value. Item: Cn1cnc(S(=O)(=O)NCCOc2cc3c(cc2F)CNC3Cc2ccccc2)c1 (centres unmarked) [Example 21] < 100 nM

Give its Ki value. Item: CN1Cc2cc(F)c(OCCNS(=O)(=O)CC3CC3)cc2C1Cc1ccccc1 (centres unmarked) [Example 20] < 1000 nM

Give its Ki value. Item: Cn1cc(S(=O)(=O)NCCOc2ccc3c(c2)C(Cc2ccccc2)NC3)cn1 (centres unmarked) [Example 7] < 100 nM
